I'd be grateful if you could share measured Ki for these entries.
MEASURED TARGET: native rat vanilloid receptors (Rattus norvegicus)
Construct: rat DRG membranes expressing native vanilloid receptors; from tissue; host or cells: dorsal root ganglia of female Sprague-Dawley rats, partially purified membrane fraction
ASSAY METHOD TEXT: biochemical
Assay type: binding
Answers are plain numbers, in µM.

Below: 2 compounds and their reported Ki.
>>> endpoint_value("CC1(C)C[C@H]2C=C(C=O)[C@]3(C=O)C[C@]3(C)[C@H]2C1")
24
>>> endpoint_value("Oc1cc2c(cc1O)CN(C(=S)NCCc1ccc(Cl)cc1)CCC2 [capsazepine]")
8.6

Now look at this one.
According to the records, this compound CCCCCCCC/C=C\CCCCCCCC(=O)NCc1ccc(O)c(OC)c1 displays Ki of 0.3

---

MEASURED TARGET: rat VR1 (Rattus norvegicus, UniProt O35433)
Construct: expressed in transfected cells
Sequence (O35433 whole entry): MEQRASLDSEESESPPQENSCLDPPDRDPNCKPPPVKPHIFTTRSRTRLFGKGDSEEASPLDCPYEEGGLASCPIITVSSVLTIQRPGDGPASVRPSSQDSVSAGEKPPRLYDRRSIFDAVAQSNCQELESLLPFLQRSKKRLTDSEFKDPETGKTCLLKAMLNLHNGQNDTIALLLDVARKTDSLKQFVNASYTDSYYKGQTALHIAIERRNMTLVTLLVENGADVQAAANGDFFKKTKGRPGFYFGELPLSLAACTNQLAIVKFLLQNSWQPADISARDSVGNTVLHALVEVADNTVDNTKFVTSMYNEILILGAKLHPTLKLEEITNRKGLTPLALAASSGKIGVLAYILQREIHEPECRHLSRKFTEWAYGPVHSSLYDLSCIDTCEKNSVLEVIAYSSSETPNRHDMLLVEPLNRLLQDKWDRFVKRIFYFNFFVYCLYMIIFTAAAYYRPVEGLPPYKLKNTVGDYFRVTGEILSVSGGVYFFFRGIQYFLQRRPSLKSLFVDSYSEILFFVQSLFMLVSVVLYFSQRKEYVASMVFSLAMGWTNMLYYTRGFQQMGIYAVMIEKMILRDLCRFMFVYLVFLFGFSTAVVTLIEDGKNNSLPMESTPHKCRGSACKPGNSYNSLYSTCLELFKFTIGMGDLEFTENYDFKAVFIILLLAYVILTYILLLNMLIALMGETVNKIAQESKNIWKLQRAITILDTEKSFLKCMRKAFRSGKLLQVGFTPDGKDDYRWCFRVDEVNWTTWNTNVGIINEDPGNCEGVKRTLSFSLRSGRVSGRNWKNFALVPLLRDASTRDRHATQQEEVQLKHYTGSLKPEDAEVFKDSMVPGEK
ASSAY METHOD TEXT: biochemical
Format: binding
DETAILS: Binding affinity (nM), competing ligands
MEASUREMENT NAME: Ki (nM)
Answers are plain numbers, in nM.

Recorded Ki (molecule Oc1cc2c(cc1O)CN(C(=S)NCCc1ccc(Cl)cc1)CCC2 [capsazepine] ): 5100

---

MEASURED TARGET: rat VR1 (Rattus norvegicus, UniProt O35433)
Construct: expressed in transfected cells
ASSAY METHOD TEXT: cell-based
DETAILS: Ca2+-mobilization (EC50, nM), agonists
MEASUREMENT NAME: EC50 (nM)
Numbers only, in nM.

Recorded result, CCCCCCCC/C=C\CCCCCCCC(=O)NCc1ccc(O)c(OC)c1 , EC50: 216
